Test system: L929
Test: Cytotoxicity against mouse L929 cells assessed as reduction in cell viability up to 200 ug/ml after 5 days by MTT assay
Type: cell-based
Conditions: l929, 120 h
RECORDED_ENDPOINT: Activity

TEST_SMILES	ASSAYED_TARGET	RECORDED_ENDPOINT	RECORDED_MEASUREMENT
O=C(NNC(=S)Nc1ccc([N+](=O)[O-])cc1Cl)c1cc(C23CC4CC(CC(C4)C2)C3)c2ccccc2n1	L929	Activity	Non-toxic
O=C(NNC(=S)Nc1ccc([N+](=O)[O-])cc1)c1cc(C23CC4CC(CC(C4)C2)C3)c2ccccc2n1	L929	Activity	Non-toxic
O=C(NNC(=O)c1cc(C23CC4CC(CC(C4)C2)C3)c2ccccc2n1)NC12CC3CC(CC(C3)C1)C2	L929	Activity	Non-toxic
Cc1cccc(C)c1NC(=S)NNC(=O)c1cc(C23CC4CC(CC(C4)C2)C3)c2ccccc2n1	L929	Activity	Non-toxic

====

Test system: L929
Assay: Cytotoxicity against mouse L929 cells assessed as reduction in cell viability up to 200 ug/ml after 5 days by MTT assay
Assay type: cell-based
Conditions: l929, 120 h

TEST_SMILES	Activity
Cc1ccc(NC(=S)NNC(=O)c2cc(C34CC5CC(CC(C5)C3)C4)c3ccccc3n2)cc1	Non-toxic
CCCCOc1ccc(NC(=O)NNC(=O)c2cc(C34CC5CC(CC(C5)C3)C4)c3ccccc3n2)cc1	Non-toxic
O=C(NNC(=O)c1cc(C23CC4CC(CC(C4)C2)C3)c2ccccc2n1)c1ccncc1	Non-toxic
C=CCCCCCCCCC(=O)NNC(=O)c1cc(C23CC4CC(CC(C4)C2)C3)c2ccccc2n1	Non-toxic
O=C(NNC(=O)N1CCOCC1)c1cc(C23CC4CC(CC(C4)C2)C3)c2ccccc2n1	Non-toxic
O=C(NNC(=O)c1cc(C23CC4CC(CC(C4)C2)C3)c2ccccc2n1)Nc1ccc(OC(F)(F)F)cc1	Non-toxic
O=C(NNC(=S)NCCc1ccccc1)c1cc(C23CC4CC(CC(C4)C2)C3)c2ccccc2n1	Non-toxic
O=C(NNC(=O)c1ccco1)c1cc(C23CC4CC(CC(C4)C2)C3)c2ccccc2n1	Non-toxic
O=C(NNC(=S)Nc1ccc(OC(F)(F)F)cc1)c1cc(C23CC4CC(CC(C4)C2)C3)c2ccccc2n1	Non-toxic
